meta.source: patent US4115482A

test_target: bovine cholinesterase (Bos taurus)
Construct: Ellman test with acetylthiocholine
Sequence (P23795 31-613): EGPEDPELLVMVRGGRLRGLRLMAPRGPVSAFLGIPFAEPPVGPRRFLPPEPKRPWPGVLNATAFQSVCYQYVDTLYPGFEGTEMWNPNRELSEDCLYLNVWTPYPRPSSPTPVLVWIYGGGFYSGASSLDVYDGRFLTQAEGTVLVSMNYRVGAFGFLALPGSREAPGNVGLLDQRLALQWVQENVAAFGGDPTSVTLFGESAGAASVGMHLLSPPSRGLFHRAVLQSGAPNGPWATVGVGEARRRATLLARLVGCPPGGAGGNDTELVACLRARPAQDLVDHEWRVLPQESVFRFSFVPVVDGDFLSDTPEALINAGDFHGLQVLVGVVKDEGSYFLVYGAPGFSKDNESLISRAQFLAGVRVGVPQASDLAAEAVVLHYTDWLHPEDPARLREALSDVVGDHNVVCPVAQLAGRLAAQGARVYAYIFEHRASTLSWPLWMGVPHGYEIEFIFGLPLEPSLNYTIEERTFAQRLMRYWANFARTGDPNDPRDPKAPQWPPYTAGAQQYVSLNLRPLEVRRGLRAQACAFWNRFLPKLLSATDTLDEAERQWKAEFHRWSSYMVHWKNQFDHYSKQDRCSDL
assay_summary: Cholesterinase placeholder
Format: biochemical
test_settings: after oxidation with peracetic acid in benzene (75°, 20 minutes) to the corresponding monothiophosphate; bovine cholinesterase, 35° C., 30 minutes
Assignment: determine reported Cholinesterase IC50 (50% inhibiting concentration), after oxidation for the given compounds.
Give bare numbers, in mol/L.

C/C=C\SP(=S)(OC)OC [Example 3]: 4.1e-05
C/C=C/SP(=S)(OCC)OCC [Example 1]: 1.6e-07
CC=CSP(=S)(OCC)OCC: 4.4e-06
C/C=C/SP(=S)(OC)OC [Example 4]: 2.8e-08

The record that follows has no Cholinesterase IC50 (50% inhibiting concentration), after oxidation shown yet.
Request: Param item = C/C=C\SP(=S)(OCC)OCC [Example 2] ; retrieve measured Cholinesterase IC50 (50% inhibiting concentration), after oxidation.
Result: 0.00018
